Measured values drawn from patent US10301284B2 for this set.

Target: human Plasma Kallikrein (Homo sapiens (Human))
Sequence (P03952 391-638 limits assumed): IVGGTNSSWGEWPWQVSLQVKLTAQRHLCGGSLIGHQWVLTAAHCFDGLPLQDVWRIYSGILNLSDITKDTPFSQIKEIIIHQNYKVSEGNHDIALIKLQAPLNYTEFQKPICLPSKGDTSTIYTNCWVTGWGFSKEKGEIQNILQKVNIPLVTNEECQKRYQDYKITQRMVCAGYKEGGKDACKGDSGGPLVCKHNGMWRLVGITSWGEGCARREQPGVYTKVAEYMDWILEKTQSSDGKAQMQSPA
Sequence (P03952 20-390 partner limits assumed): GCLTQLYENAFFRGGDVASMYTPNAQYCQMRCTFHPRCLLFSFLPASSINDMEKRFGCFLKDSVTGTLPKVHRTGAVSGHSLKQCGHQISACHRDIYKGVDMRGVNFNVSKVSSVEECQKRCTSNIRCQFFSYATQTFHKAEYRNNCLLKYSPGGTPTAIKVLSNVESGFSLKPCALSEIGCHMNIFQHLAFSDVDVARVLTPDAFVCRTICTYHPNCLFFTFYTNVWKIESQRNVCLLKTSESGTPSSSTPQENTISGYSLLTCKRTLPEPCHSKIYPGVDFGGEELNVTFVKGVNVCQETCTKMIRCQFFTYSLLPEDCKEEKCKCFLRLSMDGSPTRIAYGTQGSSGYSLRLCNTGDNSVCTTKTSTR
Assay: In vitro enzyme inhibition of human plasma kallikrein (Pro-Phe-Arg-AMC cleavage)
Type: biochemical
Conditions: human plasma kallikrein, PFR-AMC substrate, 37° C.; read-out: hPK IC50
metric: IC50

compound	systemTested	IC50
Cc1cc(N)nc(C)c1CNC(=O)c1cn(Cc2cc(F)c3ncc(Cl)cc3c2)nc1C#N	human Plasma Kallikrein (Homo sapiens (Human))	< 100 nM

Go through the list and state IC50 for each entry.
1. Cc1nc(N)ccc1CNC(=O)c1oc(Cc2ccc3ncc(Cl)cc3c2)nc1C#N
2. Cc1cc(N)nc(C)c1CNC(=O)c1cn(Cc2ccc3ncc(C(F)(F)F)cc3c2)nc1C#N
3. Cc1cc(N)nc(C)c1CNC(=O)c1cn(Cc2ccc3ncc(Cl)cc3c2)c2ccccc12

["100 to 1000 nM", "< 100 nM", "< 100 nM"]
